Assay: Biodistribution in SCID mice bearing AsPC-1 xenografts
Format: in vivo
Settings: male, mouse, kidneys, iv, 3 pmol, total radioactivity, 4 h pi, Controls, read-out: uptake in Kidneys
Peptide text beside a SMILES is read from it. * marks the point of attachment. Palmitoyl = CCCCCCCCCCCCCCCC(=O)*; X1 = NCCNCC(CNCCN)C(=O)*
measurement_name: tissue uptake at 4 h (%ID/g)
Answers are plain numbers, in %ID/g.

[Q] Return reported tissue uptake at 4 h; argument: CCCCCCCCCCCCCCCC(=O)NCCCC[C@H](NC(=O)C(CNCCN)CNCCN)C(=O)N[C@@H](CCCNC(=N)N)C(=O)N[C@@H](CCCNC(=N)N)C(=O)N1CCC[C@H]1C(=O)N[C@@H](Cc1ccc(O)cc1)C(=O)N[C@H](C(=O)N[C@@H](CC(C)C)C(=O)O)[C@@H](C)CC [[^99mTc]Tc-DT9, metal not drawn] (X1-K(Palmitoyl)RRPYIL-OH)
[A] 9.53

Each recorded value in this set is attributed to paper PMC10459693.
